- experiment-notes: Lethality in brine shrimp at 100 ug/ml
- Format: organism-based
- condition-summary: artemia, in vivo; read-out: Activity
Would you mind telling me the reported mortality at 100 ug/ml of each entry?
Give your result in % as a bare value.

stdin: Consider the molecule CCCCCCCCOc1ccc(NC(=O)[C@]2(O)C[C@@H](O)[C@@H](O)[C@H](OC(=O)/C=C/c3ccc(O)c(O)c3)C2)cc1 and give its measured mortality at 100 ug/ml.
stdout: 50

stdin: Record: CCCCCCCCOc1ccc(NC(=O)C(CC(=O)OC(C)(C)C)NC(=O)[C@@]2(O)C[C@@H](OC(=O)/C=C/c3ccc(O)c(O)c3)[C@@H]3OC(C)(C)O[C@@H]3C2)cc1 (stereo not given in full)
stdout: 56.2

stdin: Record: CCCCCCCCOc1ccc(NC(=O)C(CCCNC(=O)OC(C)(C)C)NC(=O)[C@]2(O)C[C@@H](O)[C@@H](O)[C@H](OC(=O)CCc3ccc(O)c(O)c3)C2)cc1 (stereo not given in full)
stdout: 21.1

stdin: Record: CCCCCCCCOc1ccc(NC(=O)C(CCCNC(=O)OC(C)(C)C)NC(=O)[C@@]2(O)C[C@@H](OC(=O)/C=C/c3ccc(O)cc3)[C@@H]3OC(C)(C)O[C@@H]3C2)cc1 (stereo not given in full)
stdout: 0

stdin: Record: O=C(/C=C/c1ccc(O)c(O)c1)O[C@@H]1C[C@](O)(C(=O)O)C[C@@H](O)[C@H]1O [CHLOROGENIC ACID]
stdout: 100

stdin: Record: CCCCCCCCOc1ccc(NC(=O)C(CCCNC(=O)OC(C)(C)C)NC(=O)[C@]2(O)C[C@@H](O)[C@@H](O)[C@H](OC(=O)/C=C/c3ccc(O)cc3)C2)cc1 (stereo not given in full)
stdout: 31.6

stdin: Record: CCCCCCCCOc1ccc(NC(=O)C(CCCNC(=O)OC(C)(C)C)NC(=O)[C@@]2(O)C[C@@H](OC(=O)/C=C/c3ccc(O)c(O)c3)[C@@H]3OC(C)(C)O[C@@H]3C2)cc1 (stereo not given in full)
stdout: 12.5

stdin: Record: CCCCCCCCOc1ccc(NC(=O)[C@@]2(O)C[C@@H](OC(=O)/C=C/c3ccc(O)c(O)c3)[C@@H]3OC(C)(C)O[C@@H]3C2)cc1
stdout: 100

stdin: Record: CCCCCCCCOc1ccc(NC(=O)C(CCCN)NC(=O)[C@]2(O)C[C@@H](O)[C@@H](O)[C@H](OC(=O)/C=C/c3ccc(O)c(O)c3)C2)cc1 (stereo not given in full)
stdout: 37.5

stdin: Record: CCCCCCCCOc1ccc(NC(=O)C(CCCNC(=O)OC(C)(C)C)NC(=O)[C@]2(O)C[C@@H](O)[C@@H](O)[C@H](OC(=O)/C=C/c3ccc(O)c(O)c3)C2)cc1 (stereo not given in full)
stdout: 25

stdin: Record: CCCCCCCCOc1ccc(NC(=O)C(NC(=O)[C@]2(O)C[C@@H](O)[C@@H](O)[C@H](OC(=O)/C=C/c3ccc(O)c(O)c3)C2)C(C)O)cc1 (stereo not given in full)
stdout: 12.5

stdin: Record: CCCCCCCCOc1ccc(NC(=O)C(CCCN)NC(=O)[C@]2(O)C[C@@H](O)[C@@H](O)[C@H](OC(=O)CCc3ccc(O)c(O)c3)C2)cc1 (stereo not given in full)
stdout: 10.5

stdin: Record: CCCCCCCCOc1ccc(NC(=O)C(CC(=O)OC(C)(C)C)NC(=O)[C@]2(O)C[C@@H](O)[C@@H](O)[C@H](OC(=O)/C=C/c3ccc(O)c(O)c3)C2)cc1 (stereo not given in full)
stdout: 37.5

stdin: Record: CCCCCCCCOc1ccc(NC(=O)C(NC(=O)[C@]2(O)C[C@@H](O)[C@@H](O)[C@H](OC(=O)/C=C/c3ccc(O)c(O)c3)C2)C(C)OC(C)(C)C)cc1 (stereo not given in full)
stdout: 50

stdin: Record: CCCCCCCCOc1ccc(NC(=O)C(CO)NC(=O)[C@]2(O)C[C@@H](O)[C@@H](O)[C@H](OC(=O)/C=C/c3ccc(O)c(O)c3)C2)cc1 (stereo not given in full)
stdout: 18.8

stdin: Record: CCCCCCCCOc1ccc(NC(=O)C(NC(=O)[C@@]2(O)C[C@@H](OC(=O)/C=C/c3ccc(O)c(O)c3)[C@@H]3OC(C)(C)O[C@@H]3C2)C(C)OC(C)(C)C)cc1 (stereo not given in full)
stdout: 6.2

stdin: Record: CCCCCCCCOc1ccc(NC(=O)C(CC(=O)O)NC(=O)[C@]2(O)C[C@@H](O)[C@@H](O)[C@H](OC(=O)/C=C/c3ccc(O)c(O)c3)C2)cc1 (stereo not given in full)
stdout: 6.3

stdin: Record: CCCCCCCCOc1ccc(NC(=O)C(COC(C)(C)C)NC(=O)[C@@]2(O)C[C@@H](OC(=O)/C=C/c3ccc(O)c(O)c3)[C@@H]3OC(C)(C)O[C@@H]3C2)cc1 (stereo not given in full)
stdout: 31.3

stdin: Record: CCCCCCCCOc1ccc(NC(=O)C(CCCN)NC(=O)[C@]2(O)C[C@@H](O)[C@@H](O)[C@H](OC(=O)/C=C/c3ccc(O)cc3)C2)cc1 (stereo not given in full)
stdout: 100

stdin: Record: CCCCCCCCOc1ccc(NC(=O)C(COC(C)(C)C)NC(=O)[C@]2(O)C[C@@H](O)[C@@H](O)[C@H](OC(=O)/C=C/c3ccc(O)c(O)c3)C2)cc1 (stereo not given in full)
stdout: 31.1
